- system-name: T1, FZD8-Fc (UniProt Q9H461 28-158, limits assumed)
- T1 construct: extracellular domain; also called Frizzled-Fc chimera (FZD8); not shown: Fc part
- T1 sequence (looked up): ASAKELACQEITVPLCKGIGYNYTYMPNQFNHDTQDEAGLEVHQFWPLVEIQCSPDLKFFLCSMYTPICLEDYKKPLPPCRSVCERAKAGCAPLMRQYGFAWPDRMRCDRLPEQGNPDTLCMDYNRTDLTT
- assay-info: SPR, Frizzled-Fc chimera;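 further: binding targets are Fc fusions carrying an extracellular Frizzled fragment that contains the CRD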
quantity-kind: pKd
Kindly note that pKd refers to -log10 of the concentration in mol/L and answer with the value alone.

Consider the reported pKd for these binders:
INSERT INTO results (binder, quantity_kind, numeric_readout) VALUES
  ('IgG-2919 (antibody, V domains shown, human IgG1 heavy chain (hG1), human kappa light chain (hK)) VH: EVQLVESGGGLVQPGGSLRLSCAASGFNISYSYIHWVRQAPGKGLEWVASIYSSSGSTSYADSVKGRFTISADTSKNTAYLQMNSLRAEDTAVYYCARGAIDYWGQGTLVTVSS VL: DIQMTQSPSSLSASVGDRVTITCRASQSVSSAVAWYQQKPGKAPKLLIYSASSLYSGVPSRFSGSRSGTDFTLTISSLQPEDFATYYCQQWYSSGHVLITFGQGTKVEIKR', 'pKd', 10.37),
  ('IgG-2910 (antibody, V domains shown) VH: EVQLVESGGGLVQPGGSLRLSCAASGFNISYSYMHWVRQAPGKGLEWVASIYSSSSSTSYADSVKGRFTISADTSKNTAYLQMNSLRAEDTAVYYCARGAMDYWGQGTLVTVSS VL: DIQMTQSPSSLSASVGDRVTITCRASQSVSSAVAWYQQKPGKAPKLLIYSASSLYSGVPSRFSGSRSGTDFTLTISSLQPEDFATYYCQQWYGSHLITFGQGTKVEIK', 'pKd', 10.37),
  ('IgG-2920 (antibody, V domains shown) VH: EVQLVESGGGLVQPGGSLRLSCAASGFNISYYYIHWVRQAPGKGLEWVASIYPSSGSTSYADSVKGRFTISADTSKNTAYLQMNSLRAEDTAVYYCARGGMDYWGQGTLVTVSS VL: DIQMTQSPSSLSASVGDRVTITCRASQSVSSAVAWYQQKPGKAPKLLIYSASSLYSGVPSRFSGSRSGTDFTLTISSLQPEDFATYYCQQWFAGALITFGQGTKVEIK', 'pKd', 10.25),
  ('IgG-2916 (antibody, V domains shown) VH: EVQLVESGGGLVQPGGSLRLSCAASGFNISYSSIHWVRQAPGKGLEWVASIYPSYSYTYYADSVKGRFTISADTSKNTAYLQMNSLRAEDTAVYYCARYGYYGMDYWGQGTLVTVSS VL: DIQMTQSPSSLSASVGDRVTITCRASQSVSSAVAWYQQKPGKAPKLLIYSASSLYSGVPSRFSGSRSGTDFTLTISSLQPEDFATYYCQQWYHYPYLITFGQGTKVEIK', 'pKd', 10.34);

Kindly review the next binder as well.
Q. Reported pKd for IgG-2921 (antibody, V domains shown) VH: EVQLVESGGGLVQPGGSLRLSCAASGFNISYYYIHWVRQAPGKGLEWVASIYPSSGSTSYADSVKGRFTISADTSKNTAYLQMNSLRAEDTAVYYCARGAMDYWGQGTLVTVSS VL: DIQMTQSPSSLSASVGDRVTITCRASQSVSSAVAWYQQKPGKAPKLLIYSASSLYSGVPSRFSGSRSGTDFTLTISSLQPEDFATYYCQQWYAGSLITFGQGTKVEIK : what is it?
A. 10.61
